# assay explanation: Encapsulation efficiency of lipid nanoparticles, Quant-it Ribogreen RNA quantification assay
# Assay type: physicochemical
# experimental parameters: LNP with mRNA
observation type: Encapsulation Efficiency

q: I'd like to know its Encapsulation Efficiency. The compound in question is CCCCCCCCCCCCOCC(O)CN(CCCCCC(=O)OCC(CCCCCC)CCCCCCCC)CCN(C)C (stereo not shown)
a: 96.7%

q: # get_value(readout='Encapsulation Efficiency', item= CCCCCCCCCCCCOCC(CN(CCCCCC(=O)OCC(CCCCCC)CCCCCCCC)CCN(CCO)C1CCCC1)OCCCCCCCCCCCC (stereo not shown) )
a: 80.1%

q: Request the reported Encapsulation Efficiency associated with CCCCCCCCCCCCOCC(CN(C)CCN(CCO)C1CCC1)OC(=O)CCCCC (stereo not shown)
a: 85.2%

q: Quick one: Encapsulation Efficiency of CCCCC/C=C\C/C=C\CCCCCCCC(=O)OCC(CN(C)CCN(CCO)C1CCC1)OC(=O)CCCCCCC/C=C\C/C=C\CCCCC (stereo not shown) ?
a: 91.6%

q: Give its Encapsulation Efficiency value. Item: CCCCCCCCCCCCOCC(CN(C)CCN(CCO)C1CCCCC1)OCCCCCC (stereo not shown)
a: 86.8%

q: Would you mind telling me what Encapsulation Efficiency value was observed for CCCCCCCCCCCCOCC(CN(C)CCN(CCO)C1CCC1)OCCCCCC (stereo not shown) ?
a: 76.2%

q: Requested field: Encapsulation Efficiency. Item: CCCCCCCCC(CCCCCCCC)CNC(=O)CCOCC(CN(C)CCN(CCO)C1CCCC1)OCCC(=O)NCC(CCCCCCCC)CCCCCCCC (stereo not shown)
a: 97.0%

* * *

# assay explanation: Lipid nanoparticle size and polydispersity by dynamic light scattering (Malvern Zetasizer Nano ZS)
# Format: physicochemical
# experimental parameters: LNP of cationic lipid/DSPC/cholesterol/PEG-lipid 50:10:38.5:1.5 with mRNA
observation type: size (nm)
Numeric answer only, unit nm assumed.

q: I am curious: what size (nm) value has been reported for CCCCCCCCCCCCOCC(CN(CCCCCC(=O)OCC(CCCCCC)CCCCCCCC)CCN(CCO)C1CCCCC1)OCCCCCCCC (stereo not shown) ?
a: 59.91

q: GET /values?readout=size (nm)&item= CCCCCCCCC(CCCCCCCC)COC(=O)CCOCC(CN(C)CCN(CCO)C1CCCCCC1)OCCC(=O)OCC(CCCCCCCC)CCCCCCCC (stereo not shown)
a: 76.26

q: Report size (nm) for CCCCCCCCCCCCOCC(CN(CCCCCCCCCCCC)CCN(CCO)C1CCC1)OCCCCCCCCCCCC (stereo not shown) please.
a: 79.43

q: // returns reported size (nm) for input CCCCCCCCC(CCCCCC)CC(=O)OCC(CCCCN(CCN(CCO)C1CCC1)C1CCC1)COC(=O)CC(CCCCCC)CCCCCCCC (stereo not shown)
a: 103.64

* * *

# assay explanation: Lipid nanoparticle size and polydispersity by dynamic light scattering (Malvern Zetasizer Nano ZS)
# Type: physicochemical
# experimental parameters: LNP of cationic lipid/DSPC/cholesterol/PEG-lipid 50:10:38.5:1.5 with mRNA
# Method: Briefly, a cationic lipid provided herein, DSPC, cholesterol, and PEG-lipid were solubilized in ethanol at a molar ratio of 50:10:38.5:1.5, and mRNA were diluted in 10 to 50 mM citrate buffer, pH=4. […] Lipid nanoparticle size were determined by dynamic light scattering using a Malvern Zetasizer Nano ZS (Malvern UK) using a 173° backscatter detection mode. […]
Mark 1 for size (nm) under 80 nm, 0 if at or over.

q: Lab note: size (nm) threshold 80 nm. Does this molecule come in strictly under it? CCCCCCCCC(CCCCCC)CC(=O)OCC(CCCCN(CCN(CCO)CCCC)C1CCC1)COC(=O)CC(CCCCCC)CCCCCCCC (centres unmarked)
a: 1

q: API: query returns whether the molecule falls strictly under 80 nm in size (nm). Query: CCCCCCCCCCCCOCC(CN(CCCCCC(=O)OCC(CCCCCC)CCCCCCCC)CCN(CCO)C1CCCCCC1)OCCCCCCCCCCCC (centres unmarked)
a: 1

q: Item CCCCCCCCCCCCOCC(CN(C)CCN(CCO)C1CCC1)OCCCCCCCCCCCC (centres unmarked) : size (nm) beneath 80 nm, strictly?
a: 0

q: Regarding CCCCCCCCCCC(=O)OCC(CCCCN(CCO)C1CCCCC1)COC(=O)CC(CCCCCC)CCCCCCCC (centres unmarked) , kindly confirm whether its size (nm) is beneath 80 nm.
a: 1

q: Input CCCCCCCCCCCCOCC(O)CN(CCCCCC(=O)OCC(CCCCCC)CCCCCCCC)CCN(C)C (centres unmarked) ; condition: size (nm) strictly below 80 nm. Does it hold?
a: 0

q: For this molecule, is size (nm) lower than 80 nm? CCCCCCCCCCCCOCC(CN(CCO)C1CCC1)OC(=O)CCCCCCCCCCC (centres unmarked)
a: 1

q: Just wondering, is size (nm) of CCCCCCCCCCC(=O)OCC(CCCCN(CCO)C1CCC1)COC(=O)CC(CCCCCC)CCCCCCCC (centres unmarked) below 80 nm?
a: 1

q: Record CCCCCCCCCCCCOCC(CN(CCCCCC(=O)OCC(CCCCCC)CCCCCCCC)CCN1CCCCC1)OC(=O)CCCCC (centres unmarked) : is its size (nm) strictly below 80 nm?
a: 1

q: Does this molecule meet the criterion size (nm) < 80 nm? CCCCCCCCCCCCCCCC(=O)OCC(CCCCN(CCO)C1CCCCCC1)COC(=O)CC(CCCCCC)CCCCCCCC (centres unmarked)
a: 1

q: Threshold test, size (nm) < 80 nm: CCCCCCCCC(CCCCCC)CC(=O)OCC(CCCCN(CCN(CCO)CCCCC)C1CCC1)COC(=O)CC(CCCCCC)CCCCCCCC (centres unmarked)
a: 1

q: Just wondering, is size (nm) of CCCCCCCCCCCCOCC(CN(CCCCCC(=O)OCCCCCCCCCC)CCN(CCO)C1CCC1)OCCCCCC (centres unmarked) below 80 nm?
a: 0

q: For this molecule, is size (nm) lower than 80 nm? CCCCCCCCCCC(=O)OCC(CCCCN(CCO)C1CCCCCCC1)COC(=O)CC(CCCCCC)CCCCCCCC (centres unmarked)
a: 1

q: Please determine if CCCCCCCCCCCCOCC(CN(CCCCCC(=O)OCC(CCCCCC)CCCCCCCC)CCN(CCO)C1CCCCC1)OCCCCCC (centres unmarked) is below 80 nm in terms of size (nm).
a: 1

q: Regarding CCCCCCCCCCCCOCC(CN(CCCCCC(=O)OCC(CCCCCC)CCCCCCCC)CCN(CCO)C1CCCCC1)OCCCCCCCCCCCC (centres unmarked) , kindly confirm whether its size (nm) is beneath 80 nm.
a: 1

q: State whether 80 nm exceeds size (nm) recorded for CCCCCCCCCCCCOCC(CN(C)CCN(CCO)C1CCC1)OC(=O)CCCCC (centres unmarked) .
a: 0

q: In plain terms, does CCCCCCCCC(CCCCCC)CC(=O)OCC(CCCCN(CC=C(C)C)CCO)COC(=O)CC(CCCCCC)CCCCCCCC (centres unmarked) come in under 80 nm for size (nm)?
a: 1

q: Problem: For the molecule CCCCCCCCCCCCOCC(O)CN(CCCCCC(=O)OCC(CCCCCC)CCCCCCCC)CCN1CCCCC1 (centres unmarked) , is size (nm) under 80 nm?
a: 0

q: Here's an entry: CCCCCCCCCCCCOCC(CN(CCCCCC(=O)OCC(CCCCCC)CCCCCCCC)CCN(CCO)C1CCCC1)OCCCCCC (centres unmarked) . Is its size (nm) below 80 nm?
a: 1

q: size (nm) strictly < 80 nm for this molecule? CCCCCCCCCCCCOCC(CN(CCCCCC(=O)OCC(CCCCCC)CCCCCCCC)CCN(CCO)C1CCC1)OCCCCCC (centres unmarked)
a: 1

q: For this molecule, is size (nm) lower than 80 nm? CCCCCCCCC(CCCCCC)CC(=O)OCC(CCCCN(CCCC)CCN(CCO)C1CCC1)COC(=O)CC(CCCCCC)CCCCCCCC (centres unmarked)
a: 0

q: For this molecule, is size (nm) lower than 80 nm? CCCCCCCCCCCCOCC(CN(CCCCCC(=O)OCC(CCCCCC)CCCCCCCC)CCN(CCO)C1CC1)OCCCCCCCCCCCC (centres unmarked)
a: 1

q: Find out if reported size (nm) for CCCCCCCCCCCCOCC(CN(CCCCCC(=O)OCC(CCCCCC)CCCCCCCC)CCN(CCO)C1CCCCCC1)OCCCCCC (centres unmarked) is less than 80 nm
a: 1

q: Lab note: size (nm) threshold 80 nm. Does this molecule come in strictly under it? CCCCCCCCCCCCOCC(CN(CCCCCC(=O)OCC(CCCCCC)CCCCCCCC)CCN(CCO)C1CCC1)OCCCCCCCC (centres unmarked)
a: 1

q: I wonder whether CCCCCCCCCCCCOCC(CN(CCCCCC(=O)OCC(CCCCCC)CCCCCCCC)CCN(CCO)C1CCCC1)OCCCCCCCCCCCC (centres unmarked) has size (nm) below 80 nm. Can you tell?
a: 1

q: Does this molecule meet the criterion size (nm) < 80 nm? CCCCCCCCC(CCCCCCCC)CC(=O)OCC(CCCCN(CCO)C1CCC1)COC(=O)CCCCC (centres unmarked)
a: 1

q: I wonder whether CCCCCCCCCCCCOCC(CN(C)CCN(CCO)C1CCCCC1)OCCCCCCCCCCCC (centres unmarked) has size (nm) below 80 nm. Can you tell?
a: 0

q: Decide: size (nm) of CCCCC/C=C\C/C=C\CCCCCCCC(=O)OCC(CCCCN(CCO)C1CCCCCC1)COC(=O)CC(CCCCCC)CCCCCCCC (centres unmarked) strictly below 80 nm?
a: 1
